target: human inducible NO-synthase (Homo sapiens); assay: Measurement of inducible NO-synthase activity ([3H]arginine conversion); assay type: biochemical; conditions: crude cytosolic fraction containing human inducible NO-synthase; 0.1 μM arginine; 45 to 60 min at 37° C; read-out: Inhibition of iNOS activity [measured as −logIC50 (mol/l)] (converted)
REPORTED_ENDPOINT: IC50 (nM)

[[record]]
mol = "COc1ccnc(CCc2nc3cc(-c4ccc(S(=O)(=O)N(C)C)cc4)cnc3[nH]2)c1"
reported_endpoint = "IC50"
measured_number = 14.8

[[record]]
mol = "COc1ccnc(CCc2nc3cc(-c4ccc(S(=O)(=O)N(C)C)c(F)c4)cnc3[nH]2)c1"
reported_endpoint = "IC50"
measured_number = 21.4

[[record]]
mol = "CNS(=O)(=O)c1ccc(-c2cnc3[nH]c(CCc4cc(OC)ccn4)nc3c2)cc1"
reported_endpoint = "IC50"
measured_number = 13.8


a: CCNS(=O)(=O)c1ccc(-c2cnc3[nH]c(CCc4cc(OC)ccn4)nc3c2)cc1
b: CCN(CC)S(=O)(=O)c1ccc(-c2cnc3[nH]c(CCc4cc(OC)ccn4)nc3c2)cc1
c: COc1ccnc(CCc2nc3cc(-c4ccc(S(N)(=O)=O)cc4)cnc3[nH]2)c1
Arrange the 3 compounds from largest to smallest IC50. Please list the labels in the order you were asked to rank them. b, a, c
